Kindly state log10 of solubility at 2 h for each of the entries shown.
PROTOCOL NOTES: PBS and FaSSIF solubility
Assay type: physicochemical
COND: aqueous buffer, kinetic from dmso stock; PBS pH 7.4, 2 hr at 25° C.; read-out: Solubility PBS (pH 7.4)
Procedure: Test compounds were prepared as 10 mM stocks in DMSO and 15 μl samples transferred in duplicate into 1.5 mL glass flat bottom vials (BioTech Solutions). Fasted state simulated intestinal fluid (FaSSIF) or PBS (pH 7.4) was added to each vial to final volume of 500 μl. […] The filtrate was analysed and quantified against a standard of known concentration using LC-MS/MS. Solubility values of the test compound and control compound were calculated as follows: […]
A value of 2 here means solubility at 2 h of 100 in µM, since values are log10.

Example compounds with recorded log10 of solubility at 2 h:
Task item: Endpoint output: log10 of solubility at 2 h of "Cc1c(F)cccc1NC(=O)/C=C/c1cc(F)c2c(c1)NC(=O)C2" . Value?
Reply: 0.05

Task item: Endpoint output: log10 of solubility at 2 h of "CCn1c(=O)[nH]c2cc(/C=C/C(=O)Nc3cccc(F)c3C)ccc21" . Value?
Reply: -0.40

Task item: Endpoint output: log10 of solubility at 2 h of "Cc1c(F)cccc1NC(=O)/C=C/c1ccc2c(c1)NC(=O)C2" . Value?
Reply: 0.67

Task item: Endpoint output: log10 of solubility at 2 h of "Cc1c(F)cccc1NC(=O)/C=C/c1ccc2c(c1F)NC(=O)C2" . Value?
Reply: 0.83

Task item: Endpoint output: log10 of solubility at 2 h of "Cc1c(F)cccc1NC(=O)/C=C/c1ccc2c(c1)[nH]c(=O)n2C" . Value?
Reply: 0.15

Task item: Endpoint output: log10 of solubility at 2 h of "Cc1c(F)cccc1NC(=O)/C=C/c1ccc2oc(=O)[nH]c2c1" . Value?
Reply: 0.57

Task item: Endpoint output: log10 of solubility at 2 h of "Cc1c(F)cccc1NC(=O)/C=C/c1ccc2nn[nH]c2c1" . Value?
Reply: 1.35

Task item: Endpoint output: log10 of solubility at 2 h of "Cc1c(F)cccc1NC(=O)/C=C/c1ccc2c(c1)NC(=O)C2(C)C" . Value?
Reply: 0.24

Task item: Endpoint output: log10 of solubility at 2 h of Cc1c(F)cccc1NC(=O)/C=C/c1ccc2c(c1)NC(=O)C2C (stereo not shown) . Value?
Reply: 1.53

Task item: Endpoint output: log10 of solubility at 2 h of "Cc1cccc(C(C)C)c1NC(=O)/C=C/c1ccc2oc(=O)[nH]c2c1" . Value?
Reply: 1.20

Kindly give each listed record's log10 of solubility at 2 h.
1. CC1Cc2ccccc2C1NC(=O)/C=C/c1ccc2c(c1)NC(=O)C2 (stereo not shown)
2. Cc1c(F)cccc1NC(=O)/C=C/c1ccc2c(c1)NC(=O)C21CC1
3. Cc1ccc(F)cc1NC(=O)/C=C/c1ccc2oc(=O)[nH]c2c1
4. Cc1n[nH]c2cc(/C=C/C(=O)NC3CCc4ccccc43)ccc12 (stereo not shown)
5. Cc1c(F)cccc1NC(=O)/C=C/c1ccc2c(c1)[nH]c(=O)n2C1CC1
6. CO[C@H]1Cc2ccccc2[C@@H]1NC(=O)/C=C/c1ccc2c(C#N)n[nH]c2c1

Reply:
1: 1.41; 2: -0.51; 3: -0.82; 4: 0.57; 5: 0.79; 6: 0.08

---

STUDY SYSTEM: UniProt P10635
Sequence (P10635 whole entry): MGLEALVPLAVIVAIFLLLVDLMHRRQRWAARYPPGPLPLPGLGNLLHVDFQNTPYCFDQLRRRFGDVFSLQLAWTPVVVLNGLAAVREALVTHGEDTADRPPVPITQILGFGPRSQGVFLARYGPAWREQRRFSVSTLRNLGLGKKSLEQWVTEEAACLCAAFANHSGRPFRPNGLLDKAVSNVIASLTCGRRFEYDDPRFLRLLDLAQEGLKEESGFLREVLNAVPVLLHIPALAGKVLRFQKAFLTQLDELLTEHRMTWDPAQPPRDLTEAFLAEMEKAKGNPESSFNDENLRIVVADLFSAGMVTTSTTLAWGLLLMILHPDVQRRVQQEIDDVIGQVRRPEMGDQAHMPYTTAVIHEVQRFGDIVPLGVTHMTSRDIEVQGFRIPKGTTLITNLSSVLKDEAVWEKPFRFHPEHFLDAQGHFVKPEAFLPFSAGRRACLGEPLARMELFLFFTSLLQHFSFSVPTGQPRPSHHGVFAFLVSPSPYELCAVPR
PROTOCOL NOTES: Cytochrome P450 CYP2D6 inhibition in human liver microsomes
Assay type: in vitro ADME
COND: human liver microsomes; average value from two experiments
PROPERTY NAME: pIC50
Answers are plain numbers, as −log10 of the molar value.

Example compounds with recorded pIC50:
Task item: Endpoint output: pIC50 of Cc1n[nH]c2cc(/C=C/C(=O)NC3CCc4ccccc43)ccc12 (stereo not drawn) . Value?
Reply: 4.86

Task item: Endpoint output: pIC50 of Cc1c(F)cccc1NC(=O)/C=C/c1ccc2cn[nH]c2c1 [Comparative Example 1, reference compound] . Value?
Reply: 7.13

Task item: Endpoint output: pIC50 of "Cc1c(F)cccc1NC(=O)/C=C/c1ccc2oc(=O)[nH]c2c1" . Value?
Reply: 4.72

Proceeding to the next compound to report its pIC50.
Task item: Endpoint output: pIC50 of N#Cc1n[nH]c2cc(/C=C/C(=O)NC3CCc4ccccc43)ccc12 (stereo not drawn) . Value?
Reply: 5.06

---

PROTOCOL NOTES: Hepatocyte clearance assay, human
Assay type: in vitro ADME
COND: cryopreserved primary human hepatocytes, average value from two experiments, read-out: Human heps Clint
Kindly state hepatocyte CLint at 1 µM for each of the entries shown.
Answers are plain numbers, in µL/min/1e6 cells.

Example molecules with recorded hepatocyte CLint at 1 µM:
Task item: Endpoint output: hepatocyte CLint at 1 µM of Cc1n[nH]c2cc(/C=C/C(=O)N[C@H]3c4ccccc4C[C@@H]3OCCF)ccc12 [Example 68] . Value?
Reply: 12

Task item: Endpoint output: hepatocyte CLint at 1 µM of Cc1c(F)cccc1NC(=O)/C=C/c1ccc2c(c1)[nH]c(=O)n2C1CC1 [Example 23] . Value?
Reply: 17.4

Task item: Endpoint output: hepatocyte CLint at 1 µM of Cc1ccc(F)c(C)c1NC(=O)/C=C/c1ccc2c(c1)NC(=O)C2 [Example 20] . Value?
Reply: 6.08

Proceeding to the next molecule to report its hepatocyte CLint at 1 µM.
Task item: Endpoint output: hepatocyte CLint at 1 µM of CO[C@H]1Cc2ccccc2[C@@H]1NC(=O)/C=C/c1ccc2c(C3CC3)n[nH]c2c1 [Example 70] . Value?
Reply: 24.6

---

PROTOCOL NOTES: Hepatocyte clearance assay, human
Format: in vitro ADME
COND: cryopreserved primary human hepatocytes, average value from two experiments, read-out: Human heps Clint
So basically, if hepatocyte CLint at 1 µM comes in under 20 µL/min/1e6 cells it's True, and if it's 20 µL/min/1e6 cells or more it's False.

Task item: Identify whether the compound CO[C@H]1Cc2ccccc2[C@@H]1NC(=O)/C=C/c1ccc2c(F)n[nH]c2c1 [Example 73] records hepatocyte CLint at 1 µM below 20 µL/min/1e6 cells.
Reply: True

Task item: Identify whether the compound CCn1c(=O)[nH]c2cc(/C=C/C(=O)Nc3cccc(F)c3C)ccc21 [Example 22] records hepatocyte CLint at 1 µM below 20 µL/min/1e6 cells.
Reply: True

Task item: Identify whether the compound COc1n[nH]c2cc(/C=C/C(=O)N[C@H]3c4ccccc4C[C@@H]3OC)ccc12 [Example 71] records hepatocyte CLint at 1 µM below 20 µL/min/1e6 cells.
Reply: True

Task item: Identify whether the compound COCc1c(F)cccc1NC(=O)/C=C/c1ccc2c(C)n[nH]c2c1 [Example 50] records hepatocyte CLint at 1 µM below 20 µL/min/1e6 cells.
Reply: True

Further cases:
Task item: Identify whether the compound Cc1n[nH]c2cc(/C=C/C(=O)NC3CCc4ccccc43)ccc12 (centres unmarked) [Example 25] records hepatocyte CLint at 1 µM below 20 µL/min/1e6 cells.
Reply: False

---

PROTOCOL NOTES: Microsomal clearance assay
Assay type: in vitro ADME
COND: rat liver microsomes; average value from two experiments
Kindly state microsomal CLint at 1 µM for each of the entries shown.
One number for each entry, in µL/min/mg.

Kindly give each listed record's microsomal CLint at 1 µM.
1. Cc1c(F)cccc1NC(=O)/C=C/c1ccc2nn[nH]c2c1
2. Cc1c(F)cccc1NC(=O)/C=C/c1ccc2c(c1)[nH]c(=O)n2C
3. Cc1c(F)cccc1NC(=O)/C=C/c1ccc2cn[nH]c2c1 [Comparative Example 1, reference compound]
4. CC1Cc2ccccc2C1NC(=O)/C=C/c1ccc2c(c1)NC(=O)C2 (stereo not drawn)
5. CCn1c(=O)[nH]c2cc(/C=C/C(=O)Nc3cccc(F)c3C)ccc21
6. Cc1c(F)cccc1NC(=O)/C(F)=C/c1ccc2c(c1)NC(=O)C2
7. Cc1c(F)cccc1NC(=O)/C=C/c1ccc2c(c1F)NC(=O)C2

Reply:
[106, 6.5, 43, 38, 9.85, 36.8, 17]

Kindly give each listed record's microsomal CLint at 1 µM.
1. Cc1c(F)cccc1NC(=O)/C=C/c1cc(F)c2c(c1)NC(=O)C2
2. Cc1c(F)cccc1NC(=O)/C=C/c1ccc2c(c1)[nH]c(=O)n2C1CC1

Reply:
1. 23
2. 9.8

---

Tested on: mPTP
PROTOCOL NOTES: mPTP activity (Ca2+ retention) assay in isolated rat liver mitochondria
Assay type: biochemical
COND: isolated rat liver mitochondria; average value from multiple experiments (n ≥ 2)
PROPERTY NAME: mPTP Rat liver pIC50
Numbers only.

Example molecules with recorded mPTP Rat liver pIC50:
Task item: Endpoint output: mPTP Rat liver pIC50 of Cc1n[nH]c2cc(/C=C/C(=O)N[C@H]3c4ccccc4OC[C@@H]3C)ccc12 [Example 65c] . Value?
Reply: 7.7

Task item: Endpoint output: mPTP Rat liver pIC50 of "CO[C@H]1Cc2ccccc2[C@@H]1NC(=O)/C=C/c1ccc2c(C)n[nH]c2c1" . Value?
Reply: 7.6

Task item: Endpoint output: mPTP Rat liver pIC50 of N#Cc1n[nH]c2cc(/C=C/C(=O)NC3CCc4ccccc43)ccc12 (stereo not drawn) . Value?
Reply: 7.2

Task item: Endpoint output: mPTP Rat liver pIC50 of O=C(/C=C/c1ccc2oc(=O)[nH]c2c1)NC1CCc2ccccc21 (stereo not drawn) . Value?
Reply: 6.1

Kindly give each listed record's mPTP Rat liver pIC50.
1. Cn1c(=O)[nH]c2cc(/C=C/C(=O)NC3CCc4ccccc43)ccc21 (stereo not drawn)
2. O=C(/C=C/c1ccc2oc(=O)[nH]c2c1)NC1CCOc2ccccc21 (stereo not drawn)

Reply:
6.1
5.8
